# experimental_system: T1, polypeptide GC3pep (human)
# T1 construct: also called membrane proximal polypeptide GC3pep
# T1 peptide: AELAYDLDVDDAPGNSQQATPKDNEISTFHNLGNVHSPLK
# test_details: ELISA, GC3pep coated, antibody 10 nM;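 note: antibody bound to the coated peptide for 2 h at 37 °C, detected through an HRP-conjugated secondary antibody with TMB colour development stopped by acid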
Recorded OD450 nm, one value per entry.
assay_metric: OD450 nm

binder: F2.169.2 (antibody, human IgG1, kappa, V domains shown, human-murine chimeric antibody) VH: EVQLVETGGGLVQPKGSLKLSCAASGFSFNTNAMNWVRQAPGKGLEWVARIRSKSNNYATYYADSVKDRFTISRDDSQSMLYLQMNNLKTEDTAMYYCVRDGYYVLFAYWGQGTLVTVSA VL: DVLMTQTPLSLPVSLGDQASISCRFSQSIVNSNGNTYLEWFLQKPGQSPKLLIYKVSNRFSGVPDRFSGSGSGTDFTLKISRVEAEDLGVYYCFQGSHVPFTFGTGTKLEIKR
assay_metric: OD450 nm
recorded_value: 2.38 OD450 nm
--
binder: F1.92.17 (antibody, human IgG1, kappa, V domains shown, human-murine chimeric antibody) VH: EVQLQQSGPELVKPGASVKMSCKASGYTFTDYNMHWVRQSHGKSLEWIGYINPNNGDTIYNQNFKGKATLTVNKSSSTAYMELRSLTSEDSAVYYCSRTITYYYSMDYWGPGTSVTVSS VL: QIVLTQSPALMSASPGEKVTMTCSASSSVSYMYWYQQKPRSSPKPWIYLTSNLASGVPARFSGSGSGTSYSLTISSMEAEDAATYYCQQWSSNPLTFGAGTKLELKR
assay_metric: OD450 nm
recorded_value: 0.06 OD450 nm

// provenance: patent US20260116991A1
